# Assayed target: RPS6KA1 (Homo sapiens)
# Sequence (Q15418 whole entry): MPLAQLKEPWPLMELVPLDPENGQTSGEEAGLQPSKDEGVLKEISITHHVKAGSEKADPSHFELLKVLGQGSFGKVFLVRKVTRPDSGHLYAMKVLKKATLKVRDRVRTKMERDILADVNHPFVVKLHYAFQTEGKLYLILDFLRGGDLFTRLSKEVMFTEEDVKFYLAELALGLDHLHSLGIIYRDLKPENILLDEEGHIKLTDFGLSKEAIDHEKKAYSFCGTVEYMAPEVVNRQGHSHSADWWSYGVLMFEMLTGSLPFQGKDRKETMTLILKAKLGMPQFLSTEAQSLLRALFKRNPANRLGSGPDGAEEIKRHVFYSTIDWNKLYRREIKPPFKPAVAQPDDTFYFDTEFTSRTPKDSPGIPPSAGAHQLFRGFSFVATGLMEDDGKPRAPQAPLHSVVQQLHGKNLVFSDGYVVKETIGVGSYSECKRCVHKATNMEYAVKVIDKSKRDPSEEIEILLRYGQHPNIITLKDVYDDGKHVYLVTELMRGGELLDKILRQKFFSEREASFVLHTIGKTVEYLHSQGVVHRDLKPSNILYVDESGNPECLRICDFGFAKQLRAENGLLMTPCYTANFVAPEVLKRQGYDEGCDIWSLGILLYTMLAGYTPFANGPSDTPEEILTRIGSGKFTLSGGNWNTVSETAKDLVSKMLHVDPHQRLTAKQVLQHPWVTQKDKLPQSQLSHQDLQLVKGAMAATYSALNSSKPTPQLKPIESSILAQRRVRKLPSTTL
# Test method notes: biochemical
# Design: species or system HEK293/K-562/placenta mixed human extract; Kinobeads chemoproteomic competition binding, quantified by TMT LC-MS/MS, dose response up to 20 uM
pIC50: −log10 of the molar value.
Observed property: pIC50

What value of pIC50 has been recorded for this entry: `COc1nc(N[C@H]2CC[C@H](NS(=O)(=O)CC(C)C)CC2)nc2[nH]nc(N3CCOC[C@H]3C)c12`
≤ 4.70

###

# Assayed target: JAK3 (Homo sapiens)
# Sequence (P52333 whole entry): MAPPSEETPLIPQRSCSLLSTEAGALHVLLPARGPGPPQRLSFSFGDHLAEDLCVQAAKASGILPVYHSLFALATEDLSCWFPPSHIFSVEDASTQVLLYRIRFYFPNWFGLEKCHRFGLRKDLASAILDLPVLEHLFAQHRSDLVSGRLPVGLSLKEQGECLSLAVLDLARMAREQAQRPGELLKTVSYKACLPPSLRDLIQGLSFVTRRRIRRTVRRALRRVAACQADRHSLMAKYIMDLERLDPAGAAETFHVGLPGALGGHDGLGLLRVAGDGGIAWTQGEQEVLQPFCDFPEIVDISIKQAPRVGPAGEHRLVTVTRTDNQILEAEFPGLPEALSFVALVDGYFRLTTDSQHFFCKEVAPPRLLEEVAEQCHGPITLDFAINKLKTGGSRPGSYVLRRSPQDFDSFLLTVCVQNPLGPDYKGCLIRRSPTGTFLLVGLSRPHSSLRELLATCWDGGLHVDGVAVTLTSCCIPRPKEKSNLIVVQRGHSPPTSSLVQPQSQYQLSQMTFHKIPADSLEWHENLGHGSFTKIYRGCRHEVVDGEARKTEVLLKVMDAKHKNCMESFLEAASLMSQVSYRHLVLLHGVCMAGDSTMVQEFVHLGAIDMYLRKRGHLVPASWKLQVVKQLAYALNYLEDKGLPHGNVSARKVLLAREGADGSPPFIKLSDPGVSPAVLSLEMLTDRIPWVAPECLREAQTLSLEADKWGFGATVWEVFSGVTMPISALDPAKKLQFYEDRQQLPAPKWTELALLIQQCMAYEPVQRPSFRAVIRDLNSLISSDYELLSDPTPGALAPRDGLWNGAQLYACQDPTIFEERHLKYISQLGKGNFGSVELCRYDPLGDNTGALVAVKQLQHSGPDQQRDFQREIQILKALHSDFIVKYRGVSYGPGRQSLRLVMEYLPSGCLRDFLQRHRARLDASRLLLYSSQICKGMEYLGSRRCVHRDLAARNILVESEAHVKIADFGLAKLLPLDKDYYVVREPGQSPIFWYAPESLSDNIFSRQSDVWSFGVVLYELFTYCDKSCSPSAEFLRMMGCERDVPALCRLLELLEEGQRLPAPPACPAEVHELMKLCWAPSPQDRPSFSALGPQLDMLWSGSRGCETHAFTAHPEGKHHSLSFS
# Test method notes: biochemical
# Set-up: species or system HEK293/K-562/placenta mixed human extract; Kinobeads chemoproteomic competition binding, quantified by TMT LC-MS/MS, dose response up to 20 uM
pIC50: −log10 of the molar value.
Observed property: pIC50

What value of pIC50 has been recorded for this entry: COc1ccccc1-c1n[nH]c2nc(N[C@H]3CC[C@H](NS(=O)(=O)CCC(F)(F)F)CC3)nc(OC)c12 [compound 31]
≤ 4.70
